study.system: 3-hydroxy-3-methylglutaryl-coenzyme A reductase (Rattus norvegicus, UniProt P51639)
Sequence (P51639 whole entry): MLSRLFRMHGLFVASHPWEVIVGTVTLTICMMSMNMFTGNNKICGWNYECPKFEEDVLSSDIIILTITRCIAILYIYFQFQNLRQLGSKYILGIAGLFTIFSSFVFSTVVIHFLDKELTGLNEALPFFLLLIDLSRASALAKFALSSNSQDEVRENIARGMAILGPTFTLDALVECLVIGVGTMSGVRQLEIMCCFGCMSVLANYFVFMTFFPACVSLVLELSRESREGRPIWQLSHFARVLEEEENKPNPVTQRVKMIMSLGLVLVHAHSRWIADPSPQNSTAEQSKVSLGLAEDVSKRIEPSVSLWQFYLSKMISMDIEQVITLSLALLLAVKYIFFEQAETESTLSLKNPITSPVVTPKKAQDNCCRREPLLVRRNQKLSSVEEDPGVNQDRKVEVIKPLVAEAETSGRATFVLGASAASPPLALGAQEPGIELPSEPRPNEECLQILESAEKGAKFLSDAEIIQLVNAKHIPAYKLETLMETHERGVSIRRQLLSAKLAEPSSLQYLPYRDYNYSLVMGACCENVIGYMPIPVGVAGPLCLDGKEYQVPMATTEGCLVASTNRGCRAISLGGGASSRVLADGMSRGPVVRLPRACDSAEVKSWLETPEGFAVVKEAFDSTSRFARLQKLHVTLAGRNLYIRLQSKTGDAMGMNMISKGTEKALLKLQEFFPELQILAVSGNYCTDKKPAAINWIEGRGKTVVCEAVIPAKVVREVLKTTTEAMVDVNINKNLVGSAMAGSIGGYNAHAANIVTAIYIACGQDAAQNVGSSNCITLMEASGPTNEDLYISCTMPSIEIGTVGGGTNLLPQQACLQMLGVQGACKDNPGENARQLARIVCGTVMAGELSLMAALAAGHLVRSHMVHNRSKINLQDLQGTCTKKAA
IC50 vs 10 µM: less than gives criterion met; not less than gives criterion not met.

O=C1C[C@H](O)C[C@@H](/C=C/c2cnc3cc(Sc4ccccc4)c(Sc4ccccc4)cc3c2Sc2ccccc2)O1 : criterion not met
CC(C)c1ccc(Sc2ccc3c(Sc4ccc(C(C)C)cc4)c(/C=C/[C@@H]4C[C@@H](O)CC(=O)O4)cnc3c2)cc1 : criterion not met
O=C1C[C@H](O)C[C@@H](/C=C/c2cnc3cc(Sc4ccccc4)c(F)cc3c2Sc2ccccc2)O1 : criterion met
CC(C)c1ccc(Sc2c(/C=C/[C@@H]3C[C@@H](O)CC(=O)O3)cnc3ccccc23)cc1 : criterion not met
COc1cccc(Sc2cc3ncc(/C=C/[C@@H]4C[C@@H](O)CC(=O)O4)c(Sc4cccc(OC)c4)c3cc2Sc2cccc(OC)c2)c1 : criterion not met

Query: # check: IC50 < 10 µM for CC(C)c1ccc(Sc2cc3c(Sc4ccc(C(C)C)cc4)c(/C=C/[C@@H]4C[C@@H](O)CC(=O)O4)cnc3c(Sc3ccc(C(C)C)cc3)c2Sc2ccc(C(C)C)cc2)cc1
Result: criterion met

Query: # check: IC50 < 10 µM for O=C1C[C@H](O)C[C@@H](/C=C/c2cnc3ccccc3c2Sc2ccc(F)cc2)O1
Result: criterion not met
